Source: patent US20180318451A1

target: T1, rhPSMA, extracellular part of human PSMA (residues 44-750) with its native N-terminus (human, UniProt Q04609 44-750, N-glycosylated (made in Schneider S2 insect cells)); experiment: SPR (BIAcore 2000), rhPSMA amine-coupled to CM5 chip, Anticalin as analyte
T1 construct: range 44-750; No tag; also called wild-type rhPSMA; rhGCPII
T1 sequence (Q04609 44-750 limits assumed): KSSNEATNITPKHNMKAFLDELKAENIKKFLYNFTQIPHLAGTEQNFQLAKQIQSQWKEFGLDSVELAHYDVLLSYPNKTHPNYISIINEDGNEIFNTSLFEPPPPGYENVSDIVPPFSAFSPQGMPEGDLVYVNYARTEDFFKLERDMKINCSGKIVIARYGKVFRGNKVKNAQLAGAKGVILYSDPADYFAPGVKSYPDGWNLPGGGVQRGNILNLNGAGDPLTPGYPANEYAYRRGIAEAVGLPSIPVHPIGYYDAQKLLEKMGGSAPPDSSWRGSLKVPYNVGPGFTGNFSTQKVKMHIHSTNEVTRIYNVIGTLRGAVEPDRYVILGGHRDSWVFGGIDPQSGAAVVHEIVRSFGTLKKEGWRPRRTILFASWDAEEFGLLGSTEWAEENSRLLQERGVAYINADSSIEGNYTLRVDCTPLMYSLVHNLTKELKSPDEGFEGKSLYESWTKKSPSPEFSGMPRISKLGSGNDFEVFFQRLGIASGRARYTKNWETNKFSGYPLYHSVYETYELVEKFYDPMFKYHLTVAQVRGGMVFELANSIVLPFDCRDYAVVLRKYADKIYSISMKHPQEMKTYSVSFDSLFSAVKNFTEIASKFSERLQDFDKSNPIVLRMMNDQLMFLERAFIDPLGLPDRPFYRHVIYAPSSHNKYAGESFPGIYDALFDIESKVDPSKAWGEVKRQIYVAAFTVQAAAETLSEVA
QUANTITY_MEASURED: kon
Phrase the answer as number then unit, nothing more needed.

QUERY: kon lookup needed for Anticalin A3A5.1 (designed binder, Soluble form as in SPR; also called variant A3A5.1; not shown: C-terminal Strep-tag II) QDSTSDLIPAPPLSKVPLQQNFQDNQFHGKWYVVGLAGNVILREDKDPYKMSATIYELNEDKSYNVTNVRYYLKKCYYTIATFVPGSQPGEYTLGTIKSGPGDTSGLVRVVSTNYNQHAMVFFKEVQQNREWFIITLYGRTKELTSKLKENFIRFSKSLGLPENHIVFPVPIDQCIDG , thanks.
RESULT: 210000 M⁻¹ s⁻¹
